Tested on: human PKK mRNA
Assay: Dose-dependent antisense inhibition of human PKK in HepaRG cells, 0.11-3.00 uM (Example 6)
Type: cell-based
Conditions: 0.11-3.00 μM
pIC50: −log10 of the molar value. Strand notation (5' to 3'): a small letter for the sugar, then the base; units joined by * are phosphorothioate-linked, units joined directly phosphodiester-linked; [ ] holds rarer units or linkages, { } end groups; capitals alone tell only the bases. e = 2'-O-(2-methoxyethyl) (MOE); k = constrained ethyl (cEt); [5mC] = 5-methylcytosine; d = 2'-deoxy (DNA)
assay-endpoint: pIC50

| substance | obs-value |
| --- | --- |
| 547807 (eG*e[5mC]*kA*dG*dT*dA*dT*dT*dG*dG*dG*d[5mC]*dA*kT*kT*eT; antisense) [compound 547807] | 6.40 |
| 548217 (e[5mC]*eT*kG*dT*dG*d[5mC]*dA*dT*dA*dG*dA*d[5mC]*d[5mC]*k[5mC]*k[5mC]*eA; antisense) [compound 548217] | 6.05 |
| 548409 (antisense eG*eT*kA*dT*d[5mC]*dA*d[5mC]*dT*dG*dT*dA*d[5mC]*dT*kA*kG*eT) [compound 548409] | 6.52 |

====

System: human PKK mRNA
Experiment: Antisense inhibition of human PKK mRNA in HepaRG cells, 1,000 nM, MOE/deoxy/cEt oligonucleotides (Example 3)
Assay type: cell-based
Conditions: Table 27; HepaRG cells, 1,000 nM antisense oligonucleotide; human PKK mRNA
Strand notation (5' to 3'): a small letter for the sugar, then the base; units joined by * are phosphorothioate-linked, units joined directly phosphodiester-linked; [ ] holds rarer units or linkages, { } end groups; capitals alone tell only the bases. e = 2'-O-(2-methoxyethyl) (MOE); k = constrained ethyl (cEt); [5mC] = 5-methylcytosine; d = 2'-deoxy (DNA)

| substance | % inhibition |
| --- | --- |
| 548376 (eG*e[5mC]*k[5mC]*dT*dT*dT*dG*dA*d[5mC]*d[5mC]*dT*dT*dT*k[5mC]*kG*e[5mC]; antisense) [compound 548376] | 65% |
| 548340 (antisense eG*eA*kT*dG*dA*dT*d[5mC]*d[5mC]*dT*d[5mC]*dA*d[5mC]*dA*kT*kA*e[5mC]) [compound 548340] | 35% |
| 548349 (antisense eT*e[5mC]*k[5mC]*dA*dG*dA*dA*dT*dA*d[5mC]*dT*dG*d[5mC]*k[5mC]*k[5mC]*e[5mC]) [compound 548349] | 61% |
| 548357 (antisense eG*eA*k[5mC]*dG*dA*d[5mC]*dT*dG*d[5mC]*d[5mC]*d[5mC]*dT*dG*kT*kG*e[5mC]) [compound 548357] | 69% |
| 548323 (e[5mC]*eT*kG*dT*dT*dG*d[5mC]*d[5mC]*dT*dG*dA*d[5mC]*dA*kT*kG*e[5mC]; antisense) [compound 548323] | 43% |
| 548367 (antisense eG*eT*kT*d[5mC]*dT*dT*dG*dA*dG*dT*dG*dT*dA*kG*kA*eG) [compound 548367] | 52% |
| 548377 (eG*eT*kG*dT*dG*d[5mC]*dT*dG*dA*dG*dG*dT*dT*kT*kG*e[5mC]; antisense) [compound 548377] | 80% |
| 548333 (antisense eG*eA*k[5mC]*dT*dG*dT*dG*d[5mC]*dT*dA*dT*d[5mC]*d[5mC]*kG*k[5mC]*eT) [compound 548333] | 58% |
| 548360 (antisense e[5mC]*eA*kA*dG*dA*d[5mC]*dA*dT*d[5mC]*dA*dG*dT*dA*kG*k[5mC]*eT) [compound 548360] | 45% |
| 548375 (eT*e[5mC]*kG*dA*d[5mC]*dT*dT*d[5mC]*dT*d[5mC]*d[5mC]*dT*dG*kT*k[5mC]*eT; antisense) [compound 548375] | 27% |
| 548328 (antisense eG*eG*kT*d[5mC]*d[5mC]*dT*dT*dG*dA*dA*d[5mC]*d[5mC]*d[5mC]*k[5mC]*kG*eT) [compound 548328] | 68% |
| 548353 (antisense e[5mC]*eT*kG*d[5mC]*dT*dG*dG*dT*dT*dG*dA*dG*dA*kA*kT*e[5mC]) [compound 548353] | 48% |
| 548326 (eT*e[5mC]*k[5mC]*dT*dG*dT*dG*dA*d[5mC]*dA*dG*dA*dA*k[5mC]*k[5mC]*eA; antisense) [compound 548326] | 27% |
| 548313 (eG*e[5mC]*k[5mC]*dT*dT*dT*dG*dA*dG*dG*dG*dA*dG*kT*kG*eG; antisense) [compound 548313] | 35% |
| 547747 (eT*e[5mC]*kA*d[5mC]*dT*dG*dT*dA*d[5mC]*dT*dA*dG*dT*kT*kT*e[5mC]) [compound 547747] | 67% |
| 548327 (e[5mC]*eT*kA*d[5mC]*dA*d[5mC]*d[5mC]*dT*dT*dT*d[5mC]*dT*dG*k[5mC]*kA*e[5mC]; antisense) [compound 548327] | 6% |
| 548343 (antisense eT*eA*kG*dT*dG*dA*dT*dA*dA*dG*dA*dG*d[5mC]*kT*kG*eG) [compound 548343] | 78% |
| 548369 (eG*eT*kT*dG*dG*dG*dA*dT*dG*d[5mC]*dG*dA*d[5mC]*kT*k[5mC]*eT; antisense) [compound 548369] | 50% |
| 548352 (antisense eG*eA*kG*dA*dG*dA*dG*dA*dT*dG*dT*dT*d[5mC]*k[5mC]*k[5mC]*eT) [compound 548352] | 47% |
| 548371 (e[5mC]*eG*kA*dT*dG*dA*dG*dT*dT*dG*dG*dG*d[5mC]*kA*kG*eG; antisense) [compound 548371] | 57% |
| 548311 (eT*eG*kA*d[5mC]*d[5mC]*dA*d[5mC]*d[5mC]*dT*d[5mC]*dT*d[5mC]*dG*kG*kG*eT; antisense) [compound 548311] | 10% |
| 548314 (eA*e[5mC]*kA*dA*d[5mC]*d[5mC]*dT*dG*dT*d[5mC]*d[5mC]*dA*dT*kT*k[5mC]*e[5mC]; antisense) [compound 548314] | 43% |
| 548307 (eT*eT*k[5mC]*dT*dG*d[5mC]*dA*dA*d[5mC]*dT*dG*dA*dG*k[5mC]*k[5mC]*eT; antisense) [compound 548307] | 6% |
| 548368 (eG*eT*kG*dT*dT*d[5mC]*dA*dT*dA*d[5mC]*dG*dG*dA*kA*kG*e[5mC]; antisense) [compound 548368] | 59% |
